system: Macrosiphum euphorbiae; assay: Biological activity on Macrosiphum euphorbiae (aphides); type: in vivo; design: tested at 0.01 permill; settings: 0.01 permill.; 24 hours after treatment
Label rule, in plain words: percentage of reduction of the infestation (percentage death rate), Macrosiph. E. of 60% and up is true, under 60% is false.

COP(=S)(OC)Oc1cc(Cl)nn1C	true

Could you please find out whether CCOP(=S)(OCC)Oc1cc(Cl)nn1-c1ccccc1 has percentage of reduction of the infestation (percentage death rate), Macrosiph. E. that meets 60% or exceeds it?
false

Quick check, percentage of reduction of the infestation (percentage death rate), Macrosiph. E. >= 60%? CCOP(=S)(NC(C)C)Oc1cc(Cl)nn1C (centres unmarked)
true

Identify whether the reported percentage of reduction of the infestation (percentage death rate), Macrosiph. E. of the following molecule is 60% or greater: CCOP(=S)(OCC)Oc1cc(C=C(Cl)Cl)nn1CCC#N
true

* * *

percentage of reduction of the infestation (mortality percentage), Musca d. values for the molecules below.
test system: Musca domestica; test: Biological activity on Musca domestica (Diptera), topical application; format: in vivo; conditions: 0.5 γ/ins, 24 hours after treatment
A number alone suffices; assume %.

The cases that follow already have their percentage of reduction of the infestation (mortality percentage), Musca d. on record.
CCOP(=S)(OCC)Oc1cc(C)[nH]n1 [Pyrazothion, reference compound]	0
CCOP(=S)(OCC)Oc1cc(C=C(Cl)Cl)nn1CCC#N	100
CCOP(=S)(OCC)Oc1cc(Cl)nn1-c1ccccc1	100
CCOP(=S)(OCC)Oc1cc(Cl)nn1C	100

Proceeding to the next molecule to report its percentage of reduction of the infestation (mortality percentage), Musca d..
percentage of reduction of the infestation (mortality percentage), Musca d. in this record for CCOP(=S)(OCC)Oc1cc(Cl)nn1CCC#N : 100

* * *

system: Tetranychus urticae; test: Biological activity on Tetranychus urticae (Acari) adults; type: in vivo; conditions: 0.01 permill.; 24 hours after treatment
property: percentage of reduction of the infestation (percentage of mortality), Tetran U. (%)
Unit % implied. Number only.

The examples below pair each entry with its known result.
COP(=S)(OC)Oc1cc(Cl)nn1C	100
COP(=S)(OC)Oc1cc(Cl)nn1-c1ccccc1	60
CCOP(=S)(OCC)Oc1cc(C=C(Cl)Cl)nn1CCC#N	85

Item: CCOP(=S)(OC)Oc1cc(Cl)nn1C (stereo not shown) | System: Tetranychus urticae | percentage of reduction of the infestation (percentage of mortality), Tetran U.: 100

Summary line: CCOP(=S)(OCC)Oc1cc(Cl)nn1CC , Tetranychus urticae, reported percentage of reduction of the infestation (percentage of mortality), Tetran U. = 100

Value sought: percentage of reduction of the infestation (percentage of mortality), Tetran U., system Tetranychus urticae, item CCOP(=S)(OC)Oc1cc(Cl)n(-c2ccc([N+](=O)[O-])cc2)n1 (stereo not shown) . Result: 94

Reported Tetranychus urticae percentage of reduction of the infestation (percentage of mortality), Tetran U. for item CCOP(=S)(OCC)Oc1cc(Cl)nn1C was 100

* * *

Tested on: Macrosiphum euphorbiae
Test: Biological activity on Macrosiphum euphorbiae (aphides)
Assay type: in vivo
Design: tested at 0.01 permill
Conditions: 0.01 permill.; 24 hours after treatment
Protocol: Biological activity on Macrosiphum euphorbiae (aphides) Small potato plants grown in pots were infested with adult female aphides and, after several hours, were sprinkled with an aqueous dispersion of the products under examination. The percentage death rate was determined 24 hours after treatment (untreated plants=0).
property: percentage of reduction of the infestation (percentage death rate), Macrosiph. E. (%)
# output: bare number, implied unit %

Example molecules with recorded percentage of reduction of the infestation (percentage death rate), Macrosiph. E.:
CCOP(=S)(OCC)Oc1cc(C=C(Cl)Cl)nn1C	100
CCOP(=S)(OC)Oc1cc(Cl)nn1C (stereo not shown)	92
CCOP(=S)(OCC)Oc1cc(C)[nH]n1 [Pyrazothion, reference compound]	60

The value of percentage of reduction of the infestation (percentage death rate), Macrosiph. E. measured for the molecule CCn1nc(Cl)cc1OP(=S)(OC)OC turned out to be 100
